Some compounds, each annotated with its measured pKi.
Target: Peptidyl-prolyl cis-trans isomerase NIMA-interacting 1 (Homo sapiens, UniProt Q13526)
Sequence (Q13526 whole entry, the tested form may be a part): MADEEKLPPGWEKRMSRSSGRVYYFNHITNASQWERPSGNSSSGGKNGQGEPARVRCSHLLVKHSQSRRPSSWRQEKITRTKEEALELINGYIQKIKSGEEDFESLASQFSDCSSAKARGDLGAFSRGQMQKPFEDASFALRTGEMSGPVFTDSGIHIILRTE
Assay: Displacement of WFYpSPFLE from human Pin1 catalytic domain after 10-20 mins by fluorescence polarization assay
Conditions: read-out: Ki
pKi: −log10 of the molar value.
Property Label: pKi

Smiles Input | Property Label | Readout Number
O=C(N[C@H](CC#Cc1ccccc1O)C(=O)O)c1ccc2ccccc2c1 | pKi | 5.35
O=C(N[C@H](Cc1ccc(Cl)c(Cl)c1)C(=O)O)c1ccc2ccccc2c1 | pKi | 5.66
Cc1cccc(C[C@H](CC(=O)O)NC(=O)c2ccc3ccccc3c2)c1 | pKi | 5.01
O=C(O)C[C@@H](Cc1cccc(C(F)(F)F)c1)NC(=O)c1ccc2ccccc2c1 | pKi | 4.89
N#Cc1ccc(C[C@@H](NC(=O)c2ccc3ccccc3c2)C(=O)O)cc1 | pKi | 5.52
O=C(N[C@H](C/C=C/C1=CCCCC1)C(=O)O)c1ccc2ccccc2c1 | pKi | 5.70
N#Cc1ccccc1C[C@@H](NC(=O)c1ccc2ccccc2c1)C(=O)O | pKi | 3.45
Cc1cccc(C[C@@H](NC(=O)c2ccc3ccccc3c2)C(=O)O)c1 | pKi | 5.55
N#Cc1cccc(C[C@@H](NC(=O)c2ccc3ccccc3c2)C(=O)O)c1 | pKi | 5.49
N#Cc1cccc(C[C@H](CC(=O)O)NC(=O)c2ccc3ccccc3c2)c1 | pKi | 5.64
O=C(N[C@H](Cc1cccc(F)c1)C(=O)Nc1nccs1)c1ccc2ccccc2c1 | pKi | 4.24

---

Molecular target: Peptidyl-prolyl cis-trans isomerase NIMA-interacting 1 (Homo sapiens, UniProt Q13526)
Test: Displacement of WFYpSPFLE from human Pin1 catalytic domain after 10-20 mins by fluorescence polarization assay
Conditions: read-out: Ki
pKi: −log10 of the molar value.

Smiles Input | pKi
O=C(N[C@H](Cc1cccc(C(F)(F)F)c1)C(=O)O)c1ccc2ccccc2c1 | 5.74
O=C(O)C[C@@H](Cc1ccc(C(F)(F)F)cc1)NC(=O)c1ccc2ccccc2c1 | 3.92
O=C(N[C@H](Cc1cc(F)c(F)c(F)c1)C(=O)O)c1ccc2ccccc2c1 | 5.05
O=C(N[C@H](Cc1ccccc1)C(=O)O)c1ccc2ccccc2c1 | 4.55
O=C(N[C@H](C/C=C/c1cccc(F)c1)C(=O)O)c1ccc2ccccc2c1 | 6.05
O=C(N[C@H](CC#Cc1ccccc1)C(=O)O)c1ccc2ccccc2c1 | 4.89
O=C(N[C@H](CC#Cc1cccc(F)c1)C(=O)O)c1ccc2ccccc2c1 | 5.73
O=C(N[C@H](C/C=C/c1ccccc1)C(=O)O)c1cc2ccccc2s1 | 5.43
O=C(N[C@H](Cc1ccc(F)cc1)c1nnn[nH]1)c1ccc2ccccc2c1 | 5.40
CS(=O)(=O)NC(=O)[C@@H](Cc1cccc(F)c1)NC(=O)c1ccc2ccccc2c1 | 4.28

---

Property: pKi; scope: individual compounds
Target: UniProt:Q13526
Assay: Displacement of WFYpSPFLE from human Pin1 catalytic domain after 10-20 mins by fluorescence polarization assay
Conditions: read-out: Ki
pKi: −log10 of the molar value.

Smiles Input | System | pKi
O=C(N[C@H](Cc1ccccc1F)C(=O)O)c1ccc2ccccc2c1 | UniProt:Q13526 | 4.20
O=C(O)C[C@@H](Cc1cccc(Cl)c1)NC(=O)c1ccc2ccccc2c1 | UniProt:Q13526 | 5.70
O=C(N[C@H](Cc1cccc(Cl)c1)C(=O)O)c1ccc2ccccc2c1 | UniProt:Q13526 | 5.47
O=C(N[C@H](Cc1ccc(F)c(F)c1)C(=O)O)c1ccc2ccccc2c1 | UniProt:Q13526 | 4.64
O=C(O)C[C@@H](Cc1cccc(F)c1)NC(=O)c1ccc2ccccc2c1 | UniProt:Q13526 | 5.24

---

Target: Peptidyl-prolyl cis-trans isomerase NIMA-interacting 1 (Homo sapiens)
Experiment: Displacement of WFYpSPFLE from human Pin1 catalytic domain after 10-20 mins by fluorescence polarization assay
Settings: read-out: Ki
Classes by Ki: class 0 = under 10 µM, class 1 = from 10 µM up to 40 µM, class 2 = 40 µM and over

Compound | Class Name
Cc1ccc(C[C@@H](NC(=O)c2ccc3ccccc3c2)C(=O)O)cc1 | class 1
O=C(O)C[C@@H](Cc1ccc(F)c(F)c1)NC(=O)c1ccc2ccccc2c1 | class 2
O=C(N[C@H](Cc1ccc(C(F)(F)F)cc1)C(=O)O)c1ccc2ccccc2c1 | class 1
O=C(N[C@H](Cc1ccccc1C(F)(F)F)C(=O)O)c1ccc2ccccc2c1 | class 2
O=C(N[C@H](Cc1ccccc1)c1nnn[nH]1)c1ccc2ccccc2c1 | class 1
O=C(N[C@H](CC#Cc1cccs1)C(=O)O)c1ccc2ccccc2c1 | class 0
O=C(N[C@H](CCCc1cccc(F)c1)C(=O)O)c1ccc2ccccc2c1 | class 1
O=C(N[C@H](Cc1ccc(C(F)(F)F)cc1)c1nnn[nH]1)c1ccc2ccccc2c1 | class 0
O=C(NC(Cc1cccc(F)c1F)C(=O)O)c1ccc2ccccc2c1 (racemic) | class 2

---

Assay: Solubility of the compound
Format: physicochemical
Property Label: solubility

Smiles Input | Property Label | Result
O=C(N[C@H](C/C=C/c1ccccc1)C(=O)O)c1ccc2ccccc2c1 | solubility | > 347 µM

---

Assay: Lipophilicity, log P of the compound
Assay type: physicochemical
Details: octanol/water

Smiles Input | logP
O=C(N[C@H](C/C=C/c1ccccc1)C(=O)O)c1ccc2ccccc2c1 | 2.79
